assay method text: Plasma concentration in C57B16 mouse at 10 mg/kg, ip after 2 hrs
Type: ADME, organism-based
Parameters: dose 10 mg/kg, route intraperitoneal
measurement kind: concentration at 2 h (µM)
Respond numerically; units are µM and should not be typed.

Query :: Please report the measured concentration at 2 h for NC(=O)c1ccccc1Nc1cc(Oc2ccc(-n3cncn3)cc2)ncc1C(F)(F)F
Result :: 15.7

Query :: Identify measured concentration at 2 h corresponding to COc1ccc(Oc2cc(Nc3ccccc3C(N)=O)c(Cl)cn2)cc1
Result :: 2.4

Query :: Retrieve concentration at 2 h measured for COc1ccc(Oc2cc(Nc3ccccc3C(N)=O)c(C(F)(F)F)cn2)cc1 and print it.
Result :: 10

src = ChEMBL document CHEMBL1921763
